# study_system: T1, cynomolgus BCMA (Macaca fascicularis, UniProt A0A2K5UD97)
# T1 construct: B-cell maturation antigen (BCMA), cynomolgus monkey (macaque); differs from human BCMA at three positions: alanine 20 is aspartic acid, isoleucine 22 is lysine, asparagine 31 of hBCMA is deleted; also called cynoBCMA; cBCMA
# measurement_protocol: SPR; ProteOn XPR36; whole IgG (15 µg/ml) immobilised on GLH chip by amine chemistry; BCMA as mobile phase in PBS with 0.005% Tween-20 (0.4-90 nM hBCMA, 2.7 nM-1 µM cBCMA); Kd from kon and koff, single-site model
# assay_setup: both partners purified
quantity_name: binding result

• J22.9-xi, chimaeric mouse/human IgG (antibody, V domains shown, mouse VH of J22.9 (mVH); mouse VL of J22.9 (mVL); Fab light chain in PDB 4ZFO; IgG1; whole IgG immobilised in SPR) VH: QVQLQQSGGGLVQPGGSLKLSCAASGIDFSRYWMSWVRRAPGKGLEWIGEINPDSSTINYAPSLKDKFIISRDNAKNTLYLQMSKVRSEDTALYYCASLYYDYGDAMDYWGQGTSVTVSS VL: DIVMTQSQRFMTTSVGDRVSVTCKASQSVDSNVAWYQQKPRQSPKALIFSASLRFSGVPARFTGSGSGTDFTLTISNLQSEDLAEYFCQQYNNYPLTFGAGTKLELK = binds
• J22.9-H, humanized IgG (all humanizing substitutions in VH and VL except A46L in VL) (antibody, V domains shown, humanized VH (hVH, 16 changes against the mouse VH); human IgG1 heavy chain constant region, as told for J22.9-xi; Fab light chain in PDB 8QY9; whole IgG in SPR and FACS; source: expressed, purified) VH: EVQLVESGGGLVQPGGSLRLSCAASGFTFSRYWMSWVRQAPGKGLVWVGEINPDSSTINYAPSLKDKFTISRDNAKNTLYLQMNSLRAEDTAVYYCASLYYDYGDAMDYWGQGTLVTVSS VL: EIVMTQSPATLSVSPGERATLSCKASQSVDSNVAWYQQKPGQAPRALIYSASLRFSGIPARFSGSGSGTEFTLTISSLQSEDFAVYYCQQYNNYPLTFGAGTKLELK = binds
• J22.9-ISY, humanized and CDR-optimized IgG (antibody, V domains shown, as the VH of m5 (J22.9-H; human IgG1 heavy chain constant region, as told for J22.9-xi; source: expressed, purified)) VH: EVQLVESGGGLVQPGGSLRLSCAASGFTFSRYWISWVRQAPGKGLVWVGEINPSSSTINYAPSLKDKFTISRDNAKNTLYLQMNSLRAEDTAVYYCASLYYDYGDAYDYWGQGTLVTVSS VL: EIVMTQSPATLSVSPGERATLSCKASQSVESNVAWYQQKPGQAPRALIYSASLRFSGIPARFSGSGSGTEFTLTISSLQSEDFAVYYCQQYNNYPLTFGAGTKLELK = binds
• J22.9-FSY, humanized and CDR-optimized IgG (antibody, V domains shown, as the VH of m5 (J22.9-H); human IgG1 heavy chain constant region, as told for J22.9-xi; as the light chain of m5 (J22.9-H; no structure of this variant; source: expressed, purified)) VH: EVQLVESGGGLVQPGGSLRLSCAASGFTFSRYWFSWVRQAPGKGLVWVGEINPSSSTINYAPSLKDKFTISRDNAKNTLYLQMNSLRAEDTAVYYCASLYYDYGDAYDYWGQGTLVTVSS VL: EIVMTQSPATLSVSPGERATLSCKASQSVESNVAWYQQKPGQAPRALIYSASLRFSGIPARFSGSGSGTEFTLTISSLQSEDFAVYYCQQYNNYPLTFGAGTKLELK = binds
